Listed here: items and their measured fold difference in affinity vs original.
TARGET_UNDER_TEST: T1, IL-1β (UniProt P01584 117-269)
T1 construct: Antigen immobilised on the Biacore chip
EXPERIMENT_NOTES: Biacore, periplasmic extract
REPORTED_METRIC: fold difference in affinity vs original

[
  {
    "BINDER": "XPA23 light chain N30G (Fab, V domains shown) VH: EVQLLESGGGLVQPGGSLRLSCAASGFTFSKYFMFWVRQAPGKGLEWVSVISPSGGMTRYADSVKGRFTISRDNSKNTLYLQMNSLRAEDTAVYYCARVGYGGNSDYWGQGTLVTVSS VL: DIQMTQSPSSVSASVGDRLTIICRASQDIGRWLAWYQQTPGNAPKLLIHSATSLQSGVPSRFSGSGSGTDFTLTINSLQPEDFATYYCQQADSFPLTFGGGTKVEIK",
    "RESULT": "0.71 fold"
  },
  {
    "BINDER": "XPA23 light chain H49P (Fab, V domains shown) VH: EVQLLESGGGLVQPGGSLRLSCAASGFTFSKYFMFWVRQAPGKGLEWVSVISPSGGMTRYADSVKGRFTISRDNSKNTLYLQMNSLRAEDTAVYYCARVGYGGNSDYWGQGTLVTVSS VL: DIQMTQSPSSVSASVGDRLTIICRASQDINRWLAWYQQTPGNAPKLLIPSATSLQSGVPSRFSGSGSGTDFTLTINSLQPEDFATYYCQQADSFPLTFGGGTKVEIK",
    "RESULT": "0.86 fold"
  },
  {
    "BINDER": "XPA23 light chain T52P (Fab, V domains shown) VH: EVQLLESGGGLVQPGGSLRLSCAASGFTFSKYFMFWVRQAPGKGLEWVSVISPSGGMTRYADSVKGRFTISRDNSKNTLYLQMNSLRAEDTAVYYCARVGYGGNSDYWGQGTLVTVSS VL: DIQMTQSPSSVSASVGDRLTIICRASQDINRWLAWYQQTPGNAPKLLIHSAPSLQSGVPSRFSGSGSGTDFTLTINSLQPEDFATYYCQQADSFPLTFGGGTKVEIK",
    "RESULT": "1.08 fold"
  }
]
